Tested on: NCI/ADR-RES
experiment: NCI tumour cell line growth inhibition, 48 h
Calls of active or inactive are those of the source. Rule as the data show it: active = GI50 up to about 1.1 µM and inactive = higher.
parameter: GI50

Look over these answered cases.
molecule	result
Cc1ccc(S(=O)(=O)n2cc(/C=C/C#N)c(-c3cn(S(=O)(=O)c4ccc(C)cc4)cc3-c3cn(S(=O)(=O)c4ccc(C)cc4)cc3/C=C/C#N)c2)cc1	> 100 µM (inactive)
[O-][N+](CCO)(CCO)c1ncnc2[nH]cnc12	> 100 µM (inactive)
C1=N\CCOCC/N=C/c2ccccc2OCc2cccc(n2)COc2ccccc2/1	3.39 µM (inactive)
CCSCCCN(CCCSCC)CCCSCC	> 100 µM (inactive)

[Q] Request: GI50, test system NCI/ADR-RES, entry O=C(O)C(Br)C(Br)c1ccccc1[N+](=O)[O-] (centres undefined)
[A] > 100 µM (inactive)

[Q] Request: GI50, test system NCI/ADR-RES, entry COc1ccc2cc(CNCCCCCCCCNCc3ccc4cc(OC)ccc4c3)ccc2c1
[A] 6.65 µM (inactive)

[Q] Request: GI50, test system NCI/ADR-RES, entry CC(C)(C)[Si](C)(C)OCCc1ccccc1C1CC2(S(=O)(=O)c3ccccc3)ON1CC2S(=O)(=O)c1ccccc1 (centres undefined)
[A] > 100 µM (inactive)

[Q] Request: GI50, test system NCI/ADR-RES, entry C=CCn1cnc2c(O)nc(Nc3ccccc3)nc21
[A] > 100 µM (inactive)

[Q] Request: GI50, test system NCI/ADR-RES, entry CO[C@@H]1C[C@H]2[C@@H]3CC[C@H]([C@@H](C)COC(C)=O)[C@@]3(C)CC[C@@H]2[C@@]2(C)CC[C@H]3C[C@]312
[A] 14.1 µM (inactive)
